Target: T1, recombinant Thermus thermophilus SlyD FKBP-Her3 (TtSlyD-FKBP-Her3)
T1 construct: expressed in E. coli, the N-terminal methionine can be present or not; also called thermo SlyD-Her3; T.T.SlyD-Her3
T1 chain: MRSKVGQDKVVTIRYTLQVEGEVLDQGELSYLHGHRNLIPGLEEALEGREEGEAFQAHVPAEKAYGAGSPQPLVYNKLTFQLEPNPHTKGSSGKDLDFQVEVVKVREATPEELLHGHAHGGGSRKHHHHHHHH
Experiment: SPR Biacore 4000 kinetic screening, antibody captured, analyte 150 nM, 25 C
SL (stability late) values, listed per item
Quantity measured: SL (stability late)

| Binder | Observed |
| --- | --- |
| anti-HER3 antibody M-43-01 (antibody, V domains shown, mouse hybridoma clone) VH: EVQLQQSGTVLARPGASVKMSCKASDYTFSNYWVHWVKQRPGQGLEWIGAIYPGNGDSTYYQKFKGKATLTAVTSTSTAYMDLSSLTNGDSAVYFCTRSGVGYNYYFDYWGQGTTLTVSS VL: DIQMTQSPASLSASVGETVTITCRASENIYSNLAWYQQKQGKSPQLLVYIATNLADGVPSRFSGSGSGTQFSLKINSLQPEDLGSYYCQHFYGTPFTFGTGTKLEIE | 51 RU |
| anti-HER3 antibody M-46-01 (antibody, V domains shown, mouse hybridoma clone) VH: QIQLQQSGPQLVRPGASVKISCKASGYSFTSYWMHWVKQRPGRGLEWIGMIDPSDGVTRLNQKFKDKATLTVDNSSSTAYMQLSSPTSEDSAVHYCARVDVLYWYFDVWGAGTTVTVSS VL: DIVLTQSPASLAVSLGQRATISCRASKSISISGYSYMHWYQQKAGQPPKLLIYLTSNLESGVPARFSGSGSGTDFTLNIHPVEEEDAATYYCHHSRELPFTFGSGTKLEIK | 71 RU |
| anti-HER3 antibody M-17-02 (antibody, V domains shown, mouse hybridoma clone) VH: EVQLQQSGTVLARPGASVKMSCKASGYSFTSYWIHWVKQRPGQGLEWIGAIYPGNSDTTYNQKFKGKAKLTAVTSASTAYMELSSLTNEDSAVYYCARTGVWTSYYFDYWGQGTTLTVSS VL: DIQMTQSPASLSASVGETVTITCRASENIYSNLAWYQQKQGKSPQLLVYAATNLADGVPSRFSGSGSGTQFSLRINSLQPEDFGSYYCQHFYGTPFTFGTGTKLEIK | 50 RU |
| anti-HER3 antibody M-08-11 (antibody, V domains shown, mouse monoclonal antibody from hybridoma, tested as hybridoma supernatant or as antibody; also called M-011) VH: QAYLQQSGAELMRPGASVRMSCQASGYTFTSYTIHWLKQTPRQGLEWIGAIYPRNGDFSYNQKFKDKASLTVDTSSSTAYMHLSSLTSEDSAVYFCARTINYGDWFAYWGQGTLVTVSA VL: DIQMIQSPASLFVSEGETVIITCRASENIYSNLAWYHQKKGKSPQVLVYAAIKLADGVPLRFSGSGSGTQFSLKINSLQSEDFGSYYCQHFWGPPYTFGSGTNLEIK | 45 RU |
